Biological target: Zcchc11 enzyme (Homo sapiens, UniProt Q5TAX3)
Construct: made in house; host or cells: HEK293 cells (Zcchc11); E. coli Rosetta II (LIN28A)
Sequence (Q5TAX3 212-1420): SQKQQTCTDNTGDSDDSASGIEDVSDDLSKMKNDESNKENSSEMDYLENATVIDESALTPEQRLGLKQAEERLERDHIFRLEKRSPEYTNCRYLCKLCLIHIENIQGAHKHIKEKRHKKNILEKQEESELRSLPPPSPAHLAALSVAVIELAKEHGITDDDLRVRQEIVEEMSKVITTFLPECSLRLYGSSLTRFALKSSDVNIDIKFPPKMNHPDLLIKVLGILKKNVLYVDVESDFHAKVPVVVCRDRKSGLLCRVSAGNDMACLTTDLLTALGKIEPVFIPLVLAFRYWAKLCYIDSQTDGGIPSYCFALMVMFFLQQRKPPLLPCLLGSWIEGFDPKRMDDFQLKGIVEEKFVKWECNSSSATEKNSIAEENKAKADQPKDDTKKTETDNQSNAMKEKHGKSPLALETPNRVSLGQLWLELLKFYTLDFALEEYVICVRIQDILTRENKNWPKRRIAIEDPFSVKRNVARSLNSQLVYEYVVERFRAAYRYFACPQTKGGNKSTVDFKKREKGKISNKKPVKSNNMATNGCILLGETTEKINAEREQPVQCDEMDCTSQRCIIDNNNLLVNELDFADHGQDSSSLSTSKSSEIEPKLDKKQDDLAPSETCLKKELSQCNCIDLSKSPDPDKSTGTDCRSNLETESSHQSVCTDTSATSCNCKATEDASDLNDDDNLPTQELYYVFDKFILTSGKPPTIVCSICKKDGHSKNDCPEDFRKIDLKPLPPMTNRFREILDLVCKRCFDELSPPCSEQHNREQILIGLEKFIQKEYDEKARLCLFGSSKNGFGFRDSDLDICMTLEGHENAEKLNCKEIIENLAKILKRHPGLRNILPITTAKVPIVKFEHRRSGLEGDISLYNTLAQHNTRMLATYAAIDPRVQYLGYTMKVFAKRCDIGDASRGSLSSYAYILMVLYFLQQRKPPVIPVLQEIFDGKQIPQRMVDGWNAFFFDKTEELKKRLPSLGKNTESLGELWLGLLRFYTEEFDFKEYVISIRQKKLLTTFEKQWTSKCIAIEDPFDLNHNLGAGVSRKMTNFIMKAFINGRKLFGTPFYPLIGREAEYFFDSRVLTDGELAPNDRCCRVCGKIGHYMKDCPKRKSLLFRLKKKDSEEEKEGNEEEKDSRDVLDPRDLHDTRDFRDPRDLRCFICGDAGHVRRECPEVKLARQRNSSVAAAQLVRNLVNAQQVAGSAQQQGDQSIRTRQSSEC
Experiment: TUTase assay (Zcchc11 assay, Lin28a-dependent polyuridylation of pre-let-7)
Type: biochemical
Details: Lin28a-dependent Zcchc11 (Z11) TUTase activity; read-out: Potency Lin28a-dep Z11 IC50
pIC50: −log10 of the molar value.
Collected pIC50 values appear next to each entry.

- compound: "CC1CCN(c2cc3c(cc2Cl)c(=O)c(C(=O)O)cn3-c2ccc(N3CC(N(C)C)C3)nc2)C1COc1ncccc1Cl (stereo not shown)"
  system.under.test: "Zcchc11 enzyme (Homo sapiens, UniProt Q5TAX3)"
  pIC50: "≥ 6.00"
- compound: "O=C(O)c1cn(-c2ccc(O)cc2)c2cc(N3CCC[C@@H]3COc3ccccc3Cl)c(F)cc2c1=O"
  system.under.test: "Zcchc11 enzyme (Homo sapiens, UniProt Q5TAX3)"
  pIC50: "5.00 to 6.00"
- compound: "Cc1cccnc1OC[C@H]1CCCN1c1cc2c(cc1F)c(=O)c(C(=O)O)cn2-c1ccc(O)cc1"
  system.under.test: "Zcchc11 enzyme (Homo sapiens, UniProt Q5TAX3)"
  pIC50: "≥ 6.00"
- compound: "O=C(O)c1cn(-c2ccc(F)cn2)c2cc(N3CCC[C@@H]3COc3ccccn3)c(F)cc2c1=O"
  system.under.test: "Zcchc11 enzyme (Homo sapiens, UniProt Q5TAX3)"
  pIC50: "5.00 to 6.00"
- compound: "O=C(O)c1cn(-c2cc(F)ccc2F)c2cc(N3CCC[C@@H]3COc3ccccn3)c(F)cc2c1=O"
  system.under.test: "Zcchc11 enzyme (Homo sapiens, UniProt Q5TAX3)"
  pIC50: "5.00 to 6.00"
- compound: "CN(C)C1CN(c2ccc(-n3cc(C(=O)O)c(=O)c4cc(Cl)c(N5C6CC6C[C@@H]5COc5nc(OC6CC6)ccc5Cl)cc43)cn2)C1 (stereo partly shown)"
  system.under.test: "Zcchc11 enzyme (Homo sapiens, UniProt Q5TAX3)"
  pIC50: "≥ 6.00"
- compound: "O=C(O)c1cn(-c2ccc3c(c2F)CCN3)c2cc(N3CCC[C@@H]3COc3ccccn3)c(F)cc2c1=O"
  system.under.test: "Zcchc11 enzyme (Homo sapiens, UniProt Q5TAX3)"
  pIC50: "≥ 6.00"

====

Molecular target: Zcchc11 enzyme (Homo sapiens, UniProt Q5TAX3)
Construct: made in house; host or cells: HEK293 cells (Zcchc11); E. coli Rosetta II (LIN28A)
Assay: TUTase assay (Zcchc11 assay, Lin28a-dependent polyuridylation of pre-let-7)
Type: biochemical
Settings: LIN28A 10 nM, Zcchc11 0.2 nM, 5′-fluorescein pre-let-7 miRNA 2 nM, UTP 5 uM, room temperature, 30 minutes pre-incubation; read-out: Potency Lin28a-dep Z11 IC50
pIC50: −log10 of the molar value.
reported.endpoint: pIC50

- input.smiles: "O=C(O)c1cn(-c2ccc(O)cc2F)c2cc(N3CCC[C@@H]3COc3ncccn3)c(F)cc2c1=O"
  reported.endpoint: "pIC50"
  experimental.value: "5.00 to 6.00"
- input.smiles: "CN(C)C1CN(c2ccc(-n3cc(C(=O)O)c(=O)c4cc(Cl)c(N5CC(F)(F)C[C@@H]5COc5ncccc5Cl)nc43)cn2)C1"
  reported.endpoint: "pIC50"
  experimental.value: "≥ 6.00"
- input.smiles: "O=C(O)c1cn(-c2cnc(OCCO)cn2)c2cc(N3CCC[C@@H]3COc3ncccc3Cl)c(Cl)cc2c1=O"
  reported.endpoint: "pIC50"
  experimental.value: "≥ 6.00"
- input.smiles: "Cc1cccnc1OC[C@H]1CCCN1c1cc2c(cc1F)c(=O)c(C(=O)O)cn2-c1ccc(N)nc1"
  reported.endpoint: "pIC50"
  experimental.value: "≥ 6.00"
- input.smiles: "O=C(O)c1cn2c3cc(c(Cl)cc3c1=O)N1CCC[C@@H]1COc1nc(ccc1Cl)OCCCNc1ccc-2cn1"
  reported.endpoint: "pIC50"
  experimental.value: "4.30 to 5.00"
- input.smiles: "O=C(O)c1cn(-c2ccc3c(c2)COC3)c2cc(N3CCC[C@@H]3COc3ncccc3Cl)c(Cl)cc2c1=O"
  reported.endpoint: "pIC50"
  experimental.value: "≥ 6.00"
- input.smiles: "Cc1cccnc1OC[C@H]1CCCN1c1cc2c(cc1C#N)c(=O)c(C(=O)O)cn2C1(C)CC1"
  reported.endpoint: "pIC50"
  experimental.value: "≥ 6.00"

====

Entries annotated with measured IC50
Target: Zcchc11 enzyme (Homo sapiens, UniProt Q5TAX3)
Construct: made in house; host or cells: HEK293 cells (Zcchc11); E. coli Rosetta II (LIN28A)
Assay: TUTase assay (Zcchc11 assay, Lin28a-dependent polyuridylation of pre-let-7)
Type: biochemical
Settings: Lin28a-dependent Zcchc11 (Z11) TUTase assay; read-out: Potency Lin28a-dep Z11 IC50
reported.endpoint: IC50

- compound: "CN(C)C1CN(c2ccc(-n3cc(C(=O)O)c(=O)c4cc(Cl)c(N5CCC[C@@H]5COc5ncccc5Cl)nc43)cn2)C1"
  experimental.value: "≤ 1000 nM"
- compound: "O=C(O)c1cn(Cc2cccnc2)c2cc(N3CCC[C@@H]3COc3ncccc3Cl)c(Cl)cc2c1=O"
  experimental.value: "≤ 1000 nM"
- compound: "CN(C)C1CN(c2ccc(-n3cc(C(=O)O)c(=O)c4cc(Cl)c(N5CC[C@H](O)[C@@H]5COc5ncccc5Cl)cc43)cn2)C1"
  experimental.value: "≤ 1000 nM"
- compound: "O=C(O)c1cn(C2CC2)c2c(F)c(N3CCC[C@@H]3COc3cccnc3)c(F)cc2c1=O"
  experimental.value: "1000 to 10000 nM"
- compound: "Cc1cccnc1OC[C@H]1CCCN1c1cc2c(cc1Br)c(=O)c(C(=O)O)cn2C1(C)CC1"
  experimental.value: "1000 to 10000 nM"
- compound: "COCCNc1ccc(-n2cc(C(=O)O)c(=O)c3cc(Cl)c(N4CCC[C@@H]4COc4ncccc4Cl)cc32)cn1"
  experimental.value: "≤ 1000 nM"
- compound: "CCc1ccccc1-n1cc(C(=O)O)c(=O)c2cc(F)c(N3CCC[C@@H]3COc3ccccn3)cc21"
  experimental.value: "1000 to 10000 nM"
- compound: "CN(C)C1CN(c2ccc(-n3cc(C(=O)O)c(=O)c4cc(Cl)c(N5[C@@H](COc6nc(OC7CC7)ccc6Cl)C[C@H]6C[C@H]65)cc43)cn2)C1"
  experimental.value: "≤ 1000 nM"
- compound: "COc1ccnc(OC[C@H]2C[C@H]3C[C@H]3N2c2cc3c(cc2Cl)c(=O)c(C(=O)O)cn3-c2ccc(N3CC(N(C)C)C3)nc2)c1C"
  experimental.value: "≤ 1000 nM"
- compound: "COc1ccnc(OC[C@H]2C[C@H]3C[C@H]3N2c2cc3c(cc2F)c(=O)c(C(=O)O)cn3-c2ccc(N3CC(N(C)C)C3)nc2)c1C"
  experimental.value: "≤ 1000 nM"
- compound: "CN(C)C1CN(c2ccc(-n3cc(C(=O)O)c(=O)c4cc(Cl)c(N5CCC[C@@H]5COC5CCOC5)cc43)cn2)C1 (stereo partly drawn)"
  experimental.value: "1000 to 10000 nM"
- compound: "CO[C@H]1CCN(c2cc3c(cc2Cl)c(=O)c(C(=O)O)cn3-c2ccc(N3CC(N(C)C)C3)nc2)[C@H]1COc1ncccc1Cl"
  experimental.value: "≤ 1000 nM"
- compound: "O=C(O)c1cn(Cc2ccccn2)c2cc(N3CCC[C@@H]3COc3ncccc3Cl)c(Cl)cc2c1=O"
  experimental.value: "≤ 1000 nM"
- compound: "CN(C)C1CN(c2ccc(-n3cc(C(=O)O)c(=O)c4cc(Cl)c(N5CCC[C@@H]5COc5nc(OC(C)(C)C)ccc5Cl)cc43)cn2)C1"
  experimental.value: "≤ 1000 nM"
- compound: "O=C(O)c1cn(-c2ccc(O)nn2)c2cc(N3CCC[C@@H]3COc3ccccn3)c(F)cc2c1=O"
  experimental.value: "1000 to 10000 nM"
- compound: "Cc1cc2c(=O)c(C(=O)O)cn(-c3ccc(N4CC(N(C)C)C4)nc3)c2nc1N1CCC[C@@H]1COc1ncccc1Cl"
  experimental.value: "≤ 1000 nM"
- compound: "CC(=O)NC1CCC(n2cc(C(=O)O)c(=O)c3cc(F)c(N4CCC[C@@H]4COc4ccccn4)cc32)CC1 (stereo partly drawn)"
  experimental.value: "1000 to 10000 nM"
- compound: "CN(C)C1CN(c2ccc(-n3cc(C(=O)O)c(=O)c4cc(F)c(N5CCC[C@H]5COc5ncccc5Cl)cc43)cn2)C1"
  experimental.value: "1000 to 10000 nM"
- compound: "O=C(O)c1cn(-c2cc3n(n2)CCNC3)c2cc(N3CCC[C@@H]3COc3ncccc3Cl)c(Cl)cc2c1=O"
  experimental.value: "≤ 1000 nM"
- compound: "CN(C)C1CN(c2ccc(-n3cc(C(=O)O)c(=O)c4cc(F)c(N5CCC[C@]5(C)COc5ncccc5Cl)c(F)c43)cn2)C1"
  experimental.value: "≤ 1000 nM"
- compound: "CN(C)C1CN(c2ccc(-n3cc(C(=O)O)c(=O)c4cc(Cl)c(N5CCC[C@@H]5COc5nc6nc[nH]c6cc5Cl)cc43)cn2)C1"
  experimental.value: "≤ 1000 nM"
- compound: "O=C(O)c1cn(-c2cnn(CCN3CCC3)c2)c2cc(N3CCC[C@@H]3COc3ncccc3Cl)c(Cl)cc2c1=O"
  experimental.value: "≤ 1000 nM"
- compound: "O=C(O)c1cn(-c2ccc(F)c(F)c2)c2cc(N3CCC[C@@H]3COc3ccccn3)c(F)cc2c1=O"
  experimental.value: "1000 to 10000 nM"
- compound: "COc1ccc(Cl)c(OC[C@H]2CCCN2c2cc3c(cc2Cl)c(=O)c(C(=O)O)cn3-c2ccnc(N)c2)n1"
  experimental.value: "≤ 1000 nM"
- compound: "CNCCN1CCC(n2cc(C(=O)O)c(=O)c3cc(Cl)c(N4CCC[C@@H]4COc4ncccc4Cl)cc32)CC1"
  experimental.value: "1000 to 10000 nM"
- compound: "Cc1cc2c(=O)c(C(=O)O)cn(-c3ccc(N4CC(N(C)C)C4)nc3)c2cc1N1CCC[C@@H]1COc1ncccc1Cl"
  experimental.value: "≤ 1000 nM"
- compound: "CN(C)C1CN(c2ccc(-n3cc(C(=O)O)c(=O)c4cc(Cl)c(N5C[C@@H](F)C[C@@H]5COc5ncccc5F)cc43)cn2)C1"
  experimental.value: "≤ 1000 nM"
